Data credit: the RepoRT retention time repository

assay: RP, Waters ACQUITY UPLC HSS T3, 150 × 2.1 mm, 1.8 µm, 45 °C, 0.6 mL/min, estimated dead time 0.55 min; A: water + 0.1% formic acid, pH 3; B: acetonitrile + 0.1% formic acid, pH 3; gradient (min/%B) 0/1 0.1/1 10/55 10.15/65 10.30/75 10.45/85 10.60/95 10.70/100 11/100 11.55/100 11.65/1 11.70/1 11.80/1 11.90/1 12/1 12.10/1 12.15/1 12.65/1; conditions: stereoisomer not certain
Counter-ions that a name gives are not always drawn.
# if measured LC retention time < 4 min: criterion met  # else: criterion not met

[[record]]
molecule = "O=S(=O)(O)Oc1c[nH]c2ccccc12 [Indoxyl sulfate]"
classification = "criterion met"


Inquiry: Answer whether the molecule Cc1ccc(OS(=O)(=O)O)cc1 [p-Cresol sulfate] has LC retention time strictly less than 4 min
Reply text: criterion not met

Inquiry: Answer whether the molecule NC(Cc1ccc(O)cc1)C(=O)O (stereo not given) [Tyrosine] has LC retention time strictly less than 4 min
Reply text: criterion met

Inquiry: Answer whether the molecule CC=C(C)C(=O)NCC(=O)O [Tiglylglycine] has LC retention time strictly less than 4 min
Reply text: criterion met
